Target: X-box-binding protein 1 (Homo sapiens)
Test: ATG_Xbp1_CIS: Attagene CIS-FACTORIAL HepG2 Assay for human X-box Binding Protein 1 (XBP1) (AID 2282972)
Conditions: HepG2 XBP1 cis-element reporter, Attagene multiplex; actives raise or lower the signal
Active and inactive are the calls of the source. Rule for the calls: active = hit-call score of the fitted dose curve at least 0.9, where 1 is the maximum; inactive = score below 0.9.
Response enum: active, inactive

Task: How was NC(=O)c1ccccc1Cl classified in this test?
Output: active

Task: How was O=C1CCCCCCCCCCCCCCO1 classified in this test?
Output: inactive

Task: How was BrC1CCC(Br)C(Br)CCC(Br)C(Br)CCC1Br (centres undefined) classified in this test?
Output: active

Task: How was Nc1cc([N+](=O)[O-])ccc1O classified in this test?
Output: inactive

Task: How was CCCc1c(OCCCOc2ccc(OCC(=O)O)cc2)ccc(C(C)=O)c1O classified in this test?
Output: inactive

Task: How was NC(=O)NC1NC(=O)NC1=O (centres undefined) classified in this test?
Output: inactive

Task: How was CCCCNC(=O)NS(=O)(=O)c1ccc(C)cc1 classified in this test?
Output: inactive

Task: How was Nc1cccc(S(=O)(=O)c2cccc(N)c2)c1 classified in this test?
Output: inactive

Task: How was CC(=O)OCCC(C)CC(C)(C)C (centres undefined) classified in this test?
Output: inactive

Task: How was CC(C)=CCCC(C)CC=O (centres undefined) classified in this test?
Output: inactive

Task: How was CC(C)=CCCC(C)=CCCC(C)=CCO classified in this test?
Output: inactive

Task: How was O=Nc1ccc(Nc2ccccc2)cc1 classified in this test?
Output: inactive

Task: How was CC1CCC2CC1C2(C)C (centres undefined) classified in this test?
Output: inactive

Task: How was C[Si](O[Si](C)(C)C)O[Si](C)(C)C classified in this test?
Output: inactive
